# procedure summary: Human liver microsomal stability
# Format: in vitro ADME
# assay context: human, microsomes, pH 7.4
Recorded CLint scaled at 2 h, 1 µM values for a group of compounds are listed next.
Response body: numeric value in mL/min/kg, unit text excluded.

[[record]]
cpd_smiles = "CCOc1ccc2c(C)cc(=O)oc2c1"
observed = 325


Kindly consider the entry below.
Read off the recorded CLint scaled at 2 h, 1 µM for "COc1cccc(OC)c1-c1cc(C(=O)N[C@@H](CCC2CCCCC2)CC(=O)O)nn1-c1ccc(F)cc1"
5

Reference source: paper PMC7055011
